Biological target: Platelet-activating factor acetylhydrolase (Mus musculus)
Assay: recombinant plasma PAF acetylhydrolase inhibition – biochemical, gel-based competitive ABPP, fluorescence, orthogonal assay, late-stage follow-up (AID 588474)
Details: recombinant mouse pPAFAH, FP-Rh fluorescence, at 5 µM
Calls of active or inactive are those of the source.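 How the source made its calls: active means inhibition of at least 75% in the gel-based probe competition assay; inactive means inhibition below 75%.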
// allowed return values: y for active, n for inactive

The following molecules have reported results that may help.
CC(=O)Nc1ccc(NC(=O)CCn2c(=O)oc3ccccc32)cc1	n
O=C(Oc1nsnc1N1CCOCC1)N1CCCCC1	n
COc1cc(OC)c(NC(=O)CCNS(=O)(=O)c2ccc3c(c2)oc(=O)n3C)cc1Cl	n
Cc1ccc(NS(=O)(=O)c2ccc3c(c2)oc(=O)n3C)cc1F	n
CCOC(=O)N1CCC(NC(=O)CC2C(=O)NCCN2Cc2ccccc2F)CC1 (stereo not given)	n

stdin: How did this test come out for `Cc1cccc(C2=NN(c3ccc(Br)cc3)[C@@H](C(=O)N3CCOC3=O)[C@@H]2c2ccccc2)c1` ?
stdout: n

stdin: How did this test come out for `CCOC(=O)N1CCN(C(=O)CCN2C(=O)COc3ccc(C)cc32)CC1` ?
stdout: n

stdin: How did this test come out for `CCn1c(NC(=O)c2cccc(Cn3cc(Cl)cn3)c2)nc2ccccc21` ?
stdout: n

---

Readings of inhibition for the listed compounds
Biological target: Platelet-activating factor acetylhydrolase (Mus musculus) (UniProt Q60963)
Sequence (Q60963 whole entry, looked up): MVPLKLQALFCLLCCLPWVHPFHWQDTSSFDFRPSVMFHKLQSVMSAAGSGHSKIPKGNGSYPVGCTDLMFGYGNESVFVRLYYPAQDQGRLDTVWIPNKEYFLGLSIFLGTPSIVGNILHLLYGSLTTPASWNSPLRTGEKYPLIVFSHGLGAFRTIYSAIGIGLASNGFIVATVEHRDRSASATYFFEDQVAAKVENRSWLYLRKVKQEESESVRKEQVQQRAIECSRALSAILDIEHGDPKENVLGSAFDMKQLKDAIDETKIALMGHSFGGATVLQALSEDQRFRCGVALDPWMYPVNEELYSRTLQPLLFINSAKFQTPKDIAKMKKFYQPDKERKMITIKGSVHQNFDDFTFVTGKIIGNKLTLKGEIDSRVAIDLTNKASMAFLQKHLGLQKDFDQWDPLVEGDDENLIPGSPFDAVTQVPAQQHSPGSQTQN
Assay: recombinant plasma PAF acetylhydrolase inhibition – biochemical, gel-based competitive ABPP, fluorescence, orthogonal assay, late-stage follow-up (AID 588474)
Conditions: recombinant mouse pPAFAH, FP-Rh fluorescence, at 5 µM, stronger effect = higher value
A number alone suffices; assume %.

Here are 10 compounds together with their reported answers.
O=C(Oc1ccc(-c2ccccc2)cc1)N1CCOCC1	98
O=C(CCCSc1ccc(Cl)cc1)Nc1cc(S(=O)(=O)N2CCOCC2)ccc1O	75
Cc1cc(/C=C(\C#N)C(=O)NCC2CCCO2)c(C)n1-c1ccc(Cl)cc1 (stereo unspecified)	9
CCOC(=O)NC(=O)CSc1nc(-c2ccc(C)c(C)c2)cn1-c1ccccc1	56
COc1cccc(CNC(=O)CCC2CCCN(Cc3cc(Cl)ccc3O)C2)c1 (stereo unspecified)	24
Cn1c(=O)oc2cc(S(=O)(=O)Nc3ccc(F)cc3)ccc21	24
O=C(/C=C/c1cccs1)c1cc(Br)ccc1OC(=O)N1CCOCC1	91
CCCCOC(=O)c1ccc(OC(=O)N2CCOCC2)cc1	93
O=C(Oc1ccnc2cc(Cl)ccc12)N1CCOCC1	22
O=C(Oc1cccc(Oc2ccccc2)c1)N1CCOCC1	18

// switching to the query compound
stdin: Entry under review: COc1cccc(NC(=O)Nc2cc(C(=O)NCC3CCCO3)ccc2N2CC3CC(C2)c2cccc(=O)n2C3)c1 (stereo unspecified) . Reported inhibition?
stdout: 18

---

Molecular target: Platelet-activating factor acetylhydrolase (Mus musculus) (UniProt Q60963)
Test: recombinant plasma PAF acetylhydrolase inhibition – biochemical, gel-based competitive ABPP, fluorescence, orthogonal assay, late-stage follow-up (AID 588474)
Details: recombinant mouse pPAFAH, FP-Rh fluorescence, at 5 µM, stronger effect = higher value
Label true for high-side inhibition (at or above 20%) and false for low-side inhibition (below it).

The following molecules have reported results that may help.
Cc1cccc(NS(=O)(=O)c2ccc3[nH]c(=O)oc3c2)c1C	false
CCOC(=O)N1CCN(C(=O)c2cccc(S(=O)(=O)Nc3ccc(Br)cc3)c2)CC1	false
CCCNC(=O)c1ccc(N2CC3CC(C2)c2cccc(=O)n2C3)c(NC(=O)Nc2ccc(CC)cc2)c1 (configuration not stated)	false

stdin: Exam item: decide whether the reported inhibition for `O=C(N/C=C/c1ccco1)OCc1ccccc1` is at least 20%.
stdout: false

stdin: Exam item: decide whether the reported inhibition for `O=C(Oc1ccc(-c2ccccc2)cc1)N1CCCCC1` is at least 20%.
stdout: true

stdin: Exam item: decide whether the reported inhibition for COc1cccc(NC(=O)Nc2cc(C(=O)NC(C)C)ccc2N2CC3CC(C2)c2cccc(=O)n2C3)c1 (configuration not stated) is at least 20%.
stdout: true

stdin: Exam item: decide whether the reported inhibition for `Cc1ccc(NS(=O)(=O)c2ccc3[nH]c(=O)oc3c2)c(C)c1` is at least 20%.
stdout: false
